- tested system: OATP2B1 (Homo sapiens, UniProt O94956)
- Construct: expressed in transfected cells; host or cells: A431 cells
- Sequence (O94956 whole entry): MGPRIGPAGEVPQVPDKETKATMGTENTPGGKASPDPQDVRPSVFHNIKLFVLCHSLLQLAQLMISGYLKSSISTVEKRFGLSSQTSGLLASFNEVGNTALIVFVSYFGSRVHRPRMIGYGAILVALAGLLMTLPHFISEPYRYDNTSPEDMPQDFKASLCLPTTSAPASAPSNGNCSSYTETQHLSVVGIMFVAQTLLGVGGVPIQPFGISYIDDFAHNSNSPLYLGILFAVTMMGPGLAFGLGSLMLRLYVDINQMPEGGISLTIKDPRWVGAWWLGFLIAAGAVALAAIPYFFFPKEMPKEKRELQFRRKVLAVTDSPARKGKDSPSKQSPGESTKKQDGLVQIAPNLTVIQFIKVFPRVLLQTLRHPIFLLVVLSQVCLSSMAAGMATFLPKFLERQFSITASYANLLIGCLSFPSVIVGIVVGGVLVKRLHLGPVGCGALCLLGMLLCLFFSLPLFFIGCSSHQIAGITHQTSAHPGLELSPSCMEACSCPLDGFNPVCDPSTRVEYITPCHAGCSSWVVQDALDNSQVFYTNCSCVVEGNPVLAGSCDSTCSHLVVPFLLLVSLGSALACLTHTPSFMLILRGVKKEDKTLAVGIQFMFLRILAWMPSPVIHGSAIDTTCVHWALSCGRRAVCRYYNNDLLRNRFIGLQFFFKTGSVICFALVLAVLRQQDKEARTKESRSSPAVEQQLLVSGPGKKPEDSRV
- assay overview: Pyranine transport inhibition in A431 cells overexpressing OATP2B1
- Format: cell-based
- run parameters: initial three-point screen (1, 10, 100 μM), category by concentration needed for 50% inhibition; pyranine 20 μM, 15 min, pH 5.5; read-out: IC50 (μM) OATP2B1
Entries and their IC50 values follow.

Below, each entry is followed by its recorded IC50 result.
molecule: Fc1ccccc1-c1cc(-c2ccccc2)c2c3c(sc2n1)CCCC3
observed: > 10 µM
//
molecule: COC(=O)c1c(NC(=O)CN2C(=O)NC3(CCc4ccccc4C3)C2=O)sc2c1CCCCC2 (stereo not shown)
observed: < 1 µM
//
molecule: CC(OC(=O)C1CCN(S(=O)(=O)c2ccc3c(c2)OCCO3)CC1)C(=O)Nc1cccc(C#N)c1 (stereo not shown)
observed: 1 to 10 µM

Q) Which measured IC50 belongs to O=C(Nc1ccccc1)c1ccccc1OCC(=O)N1CCN(C(=O)c2ccco2)CC1 , tested on OATP2B1 (Homo sapiens, UniProt O94956)?
A) 1 to 10 µM

====

- tested system: OATP1B3 (Homo sapiens, UniProt Q9NPD5)
- Construct: expressed in transfected cells; host or cells: A431 cells
- Sequence (Q9NPD5 whole entry): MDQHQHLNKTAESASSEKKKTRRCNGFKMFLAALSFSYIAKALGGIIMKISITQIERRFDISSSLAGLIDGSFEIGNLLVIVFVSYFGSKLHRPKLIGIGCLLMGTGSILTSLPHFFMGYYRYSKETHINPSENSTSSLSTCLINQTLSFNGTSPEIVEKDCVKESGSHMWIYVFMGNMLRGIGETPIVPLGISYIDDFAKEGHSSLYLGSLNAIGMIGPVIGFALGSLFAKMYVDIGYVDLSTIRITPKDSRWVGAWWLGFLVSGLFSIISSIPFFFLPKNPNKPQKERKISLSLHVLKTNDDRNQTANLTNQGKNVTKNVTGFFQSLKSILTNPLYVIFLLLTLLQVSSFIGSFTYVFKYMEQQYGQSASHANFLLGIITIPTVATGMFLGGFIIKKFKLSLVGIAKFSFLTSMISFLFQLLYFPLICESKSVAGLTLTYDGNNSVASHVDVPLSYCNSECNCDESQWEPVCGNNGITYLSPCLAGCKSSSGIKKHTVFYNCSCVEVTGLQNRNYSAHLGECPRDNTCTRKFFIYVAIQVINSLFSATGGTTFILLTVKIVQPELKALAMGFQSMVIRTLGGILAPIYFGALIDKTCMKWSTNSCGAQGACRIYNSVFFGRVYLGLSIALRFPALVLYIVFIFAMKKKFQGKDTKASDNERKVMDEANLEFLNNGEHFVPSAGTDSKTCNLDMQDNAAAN
- assay overview: Pyranine transport inhibition in A431 cells overexpressing OATP1B3
- Assay type: cell-based
- run parameters: initial three-point screen (1, 10, 100 μM), category by concentration needed for 50% inhibition; pyranine 20 μM, 30 min, pH 5.5; read-out: IC50 (μM) OATP1B3
experimental readout: IC50

molecule: O=C(/C=C/c1cn(Cc2ccccc2)nn1)N1CCCC(c2nc3ccccc3s2)C1 (stereo not shown) [H2]
observed: > 10 µM
--
molecule: COc1ccc(C2(c3ccc(OC)cc3)NC(=O)N(CC(=O)c3ccc4c(c3)OCO4)C2=O)cc1 [E2]
observed: 1 to 10 µM
--
molecule: O=C(NCc1ccc(N2CCOCC2)nc1)c1ccccc1CSc1nc2ccccc2[nH]1 [F6]
observed: > 10 µM

Q) Would you kindly share the measured IC50 for O=C(CN1C(=O)NC(Cc2c[nH]c3ccccc23)C1=O)Nc1ccc(OCc2ccccc2)cc1 (stereo not shown) [A6] ?
A) > 10 µM

# credit: paper PMC9795544
